Parameter: pIC50. Scope: all listed entries.
# ASSAYED TARGET: Syk catalytic domain (aa 356-635 with a C-terminal His-tag) (Homo sapiens)
# Construct: His-tag (C); made in house
# TEST METHOD NOTES: In vitro Syk kinase activity measured by trFRET, Syk catalytic domain
# Format: biochemical
# CONDITION SET: Syk catalytic domain (aa 356-635), trFRET, 0.001 mM ATP
pIC50: −log10 of the molar value.

Completed entries (count: 3):
{"columns": ["COMPOUND", "ASSAYED TARGET", "OBSERVED VALUE"],
 "data": [
  ["CC(=O)N[C@H]1CC[C@@H](c2ncc3cnc4[nH]c(-c5cccc(S(C)(=O)=O)c5)cc4n23)C1", "Syk catalytic domain (aa 356-635 with a C-terminal His-tag) (Homo sapiens)", "6.00 to 7.00"],
  ["COc1ccc2c(c1)c(-c1cc3c(ncc4cnc(C)n43)n1COP(=O)(O)O)cn2C", "Syk catalytic domain (aa 356-635 with a C-terminal His-tag) (Homo sapiens)", "5.00 to 6.00"],
  ["Cc1nc(-c2ccc(C(C)(C)O)cc2)c2cnc3[nH]cc(Br)c3n12", "Syk catalytic domain (aa 356-635 with a C-terminal His-tag) (Homo sapiens)", "> 7.00"]
]}

Okay, next one:
(Q) I would be grateful if you could share the reported pIC50 for CC(C)(O)c1ccc(-c2nc([C@@H]3CCCC[C@H]3CN)n3c2cnc2[nH]ccc23)cc1 (racemic) .
(A) 6.00 to 7.00

Attribution: patent US20140349970A1
